assayed.system: Pol III from S. aureus (PolC) (Staphylococcus aureus, UniProt P0C1P9)
Construct: His tag (pET15b) (N)
Sequence (P0C1P9 whole entry): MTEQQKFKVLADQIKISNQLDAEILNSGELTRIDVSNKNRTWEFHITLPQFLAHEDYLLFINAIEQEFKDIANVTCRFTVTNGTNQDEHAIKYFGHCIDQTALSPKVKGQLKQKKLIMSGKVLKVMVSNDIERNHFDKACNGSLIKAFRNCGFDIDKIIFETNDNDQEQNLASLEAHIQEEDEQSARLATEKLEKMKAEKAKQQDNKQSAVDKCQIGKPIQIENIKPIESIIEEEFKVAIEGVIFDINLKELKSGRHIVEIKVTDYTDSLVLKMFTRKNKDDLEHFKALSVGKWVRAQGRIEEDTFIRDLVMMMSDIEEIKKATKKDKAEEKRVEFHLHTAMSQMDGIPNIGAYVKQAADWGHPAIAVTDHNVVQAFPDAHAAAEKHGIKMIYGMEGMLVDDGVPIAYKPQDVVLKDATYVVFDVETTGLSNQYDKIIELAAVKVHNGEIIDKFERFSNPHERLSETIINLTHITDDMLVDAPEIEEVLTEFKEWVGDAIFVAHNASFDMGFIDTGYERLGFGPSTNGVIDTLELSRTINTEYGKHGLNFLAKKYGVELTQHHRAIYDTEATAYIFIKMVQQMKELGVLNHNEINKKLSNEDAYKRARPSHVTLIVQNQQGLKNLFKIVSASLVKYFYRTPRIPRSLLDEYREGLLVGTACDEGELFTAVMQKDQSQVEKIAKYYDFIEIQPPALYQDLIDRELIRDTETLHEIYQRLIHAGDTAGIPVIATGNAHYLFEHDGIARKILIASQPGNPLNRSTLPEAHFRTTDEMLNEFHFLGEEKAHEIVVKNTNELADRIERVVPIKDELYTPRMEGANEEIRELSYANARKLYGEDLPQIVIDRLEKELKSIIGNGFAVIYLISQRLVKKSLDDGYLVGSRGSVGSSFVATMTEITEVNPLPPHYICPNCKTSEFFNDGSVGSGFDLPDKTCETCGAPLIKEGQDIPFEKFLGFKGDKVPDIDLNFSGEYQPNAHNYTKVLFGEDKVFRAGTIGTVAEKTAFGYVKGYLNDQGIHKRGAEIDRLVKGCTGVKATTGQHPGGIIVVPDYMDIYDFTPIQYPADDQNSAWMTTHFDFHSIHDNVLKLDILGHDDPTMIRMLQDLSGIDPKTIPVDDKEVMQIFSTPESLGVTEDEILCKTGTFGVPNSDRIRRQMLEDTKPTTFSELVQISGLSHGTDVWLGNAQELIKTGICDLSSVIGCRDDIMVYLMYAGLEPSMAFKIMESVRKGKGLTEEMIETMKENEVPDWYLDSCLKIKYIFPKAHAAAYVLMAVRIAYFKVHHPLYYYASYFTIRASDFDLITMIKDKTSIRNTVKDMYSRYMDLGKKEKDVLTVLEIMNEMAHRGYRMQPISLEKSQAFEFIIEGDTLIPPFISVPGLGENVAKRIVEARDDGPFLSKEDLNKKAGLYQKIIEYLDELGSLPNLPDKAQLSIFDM
method.description: Determination of the IC50 for Polymerase III (PolC, luciferase-coupled pyrophosphate detection)
conditions.used: purified PolC ~2 nM, 30° C., 30 min, activated calf thymus DNA
pIC50: −log10 of the molar value.
parameter.measured: pIC50

CCc1cc(Nc2cc(=O)n(CC3CCN(C(=O)c4ccno4)CC3)c(=O)[nH]2)ccc1C    6.85
O=C(c1csnn1)N1CCC(Cn2c(=O)cc(Nc3ccc4c(c3)CCC4)[nH]c2=O)CC1    7.05
Cc1nnsc1-c1nc(C(=O)N2CCC(Cn3c(=O)cc(Nc4ccc5c(c4)CCC5)[nH]c3=O)CC2)cs1    6.96
O=C(c1nc[nH]n1)N1CCCC(Cn2c(=O)cc(Nc3ccc4c(c3)CCC4)[nH]c2=O)C1 (stereo not drawn)    6.47
O=C(c1cccnc1)N1CCCC(Cn2c(=O)cc(Nc3ccc4c(c3)CCC4)[nH]c2=O)C1 (stereo not drawn)    6.66
Cc1ccoc1C(=O)N1CCCC(Cn2c(=O)cc(Nc3ccc4c(c3)CCC4)[nH]c2=O)C1 (stereo not drawn)    6.48
